- target.of.assay: Ubiquitin carboxyl-terminal hydrolase BAP1 (Homo sapiens) (UniProt Q92560)
- Sequence (Q92560 whole entry, looked up): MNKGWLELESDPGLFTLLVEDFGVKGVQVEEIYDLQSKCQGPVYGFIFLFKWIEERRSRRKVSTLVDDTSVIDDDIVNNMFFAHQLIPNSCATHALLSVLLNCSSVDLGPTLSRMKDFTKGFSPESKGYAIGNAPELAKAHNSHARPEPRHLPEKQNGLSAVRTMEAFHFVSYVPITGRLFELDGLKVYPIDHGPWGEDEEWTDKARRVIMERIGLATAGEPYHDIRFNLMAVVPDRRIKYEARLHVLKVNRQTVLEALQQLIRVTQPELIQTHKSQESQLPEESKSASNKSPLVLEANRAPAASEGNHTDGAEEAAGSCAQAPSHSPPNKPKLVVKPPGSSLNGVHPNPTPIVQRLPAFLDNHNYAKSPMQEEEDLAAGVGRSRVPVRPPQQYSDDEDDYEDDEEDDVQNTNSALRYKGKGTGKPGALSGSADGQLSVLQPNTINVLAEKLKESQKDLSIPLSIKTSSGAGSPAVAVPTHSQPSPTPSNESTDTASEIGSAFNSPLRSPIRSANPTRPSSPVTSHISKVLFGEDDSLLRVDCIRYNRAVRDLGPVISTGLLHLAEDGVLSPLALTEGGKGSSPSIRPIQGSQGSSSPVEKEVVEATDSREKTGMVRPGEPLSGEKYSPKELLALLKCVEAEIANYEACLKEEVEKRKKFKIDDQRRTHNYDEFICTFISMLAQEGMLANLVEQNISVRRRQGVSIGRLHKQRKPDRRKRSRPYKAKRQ
- assay.comment: BAP1 versus UCH-L1 deubiquitinase inhibition – biochemical, ubiquitin-rhodamine110-glycine substrate, selectivity assay, dose response (AID 1134)
- experimental.parameters: recombinant BAP1, ubiquitin-rhodamine110 cleavage fluorescence kinetic
pIC50: −log10 of the molar value.
quantity.kind: pIC50

Cc1sc(NC(=O)CSc2nccc(-c3ccc(Cl)cc3)n2)c(C#N)c1-c1ccc(F)cc1    5.80

P. Cc1sc(NC(=O)CSc2nnc(-c3ccc(I)cc3)o2)c(C#N)c1-c1ccc(F)cc1
Q. Cc1sc(NC(=O)CSc2nnc(-c3ccc(O)cc3O)o2)c(C#N)c1-c1ccc(F)cc1
Inquiry: Sorting ascending by pIC50, which comes first: P or Q ? Mark your answer with the label of the selected entry.
Reply text: Q

I. Cc1sc(NC(=O)CSc2nnc(-c3ccc(N)cc3)o2)c(C#N)c1-c1ccc(F)cc1
II. Cc1sc(NC(=O)CSc2nnc(N3CCOCC3)o2)c(C#N)c1-c1ccc(F)cc1
Inquiry: Could you point out whether the larger pIC50 belongs to I or to II ? Refer to your chosen item by its label in the answer.
Reply text: II

1. Cc1sc(NC(=O)CSc2n[nH]c(-c3ccc(O)cc3)n2)c(C#N)c1C
2. O=C(CSc1nnc(-c2ccc(Cl)cc2)o1)Nc1cc(-c2ccc(F)cc2)[nH]n1
3. Cc1sc(NC(=O)CSc2nnc(-c3ccc(O)cc3)o2)c(C#N)c1-c1ccc(Cl)cc1Cl
4. Cc1sc(NC(=O)CSc2n[nH]c(-c3ccc(O)cc3)n2)c(C#N)c1-c1ccc(F)cc1
Inquiry: Ordering criterion: pIC50; begin with the maximum. Thanks in advance for listing the labels in the requested order.
Reply text: 2, 4, 3, 1
(2: 6.07, 4: 5.66, 3: 5.43, 1: 4.51)

----------
- assay.comment: BAP1 versus UCH-L1 deubiquitinase inhibition – biochemical, ubiquitin-rhodamine110-glycine substrate, selectivity assay, dose response (AID 1134)
- experimental.parameters: recombinant BAP1, ubiquitin-rhodamine110 cleavage fluorescence kinetic; measured here: UCH-L1 counter-screen IC50
quantity.kind: IC50 (µM)

Before answering, review these 3 worked examples.
Cc1sc(NC(=O)CSc2nnc(-c3ccc(Cl)nc3)o2)c(C#N)c1-c1ccc(F)cc1    13.6
Cc1sc(NC(=O)CSc2nnc(-c3ccc(Cl)cc3)o2)c(C#N)c1-c1ccc(Cl)cc1Cl    13.8
Cc1sc(NC(=O)CSc2nnc(-c3ccc(Cl)cc3)o2)c(C#N)c1-c1ccccc1    13.7

1. Cc1sc(NC(=O)CSc2n[nH]c(-c3ccc(O)cc3)n2)c(C#N)c1-c1ccc(F)cc1
2. O=C(CSc1nnc(-c2ccc(Cl)cc2)o1)Nc1cc(-c2ccc(F)cc2)[nH]n1
Inquiry: Which value of IC50 is greater, the one for 1 or the one for 2 ? Use the label to indicate which entry you chose.
Reply text: 2
(2: 51.9 µM, 1: 10.1 µM)

----------
- assay.comment: BAP1 versus UCH-L1 deubiquitinase inhibition – biochemical, ubiquitin-rhodamine110-glycine substrate, selectivity assay, dose response (AID 1134)
- experimental.parameters: recombinant BAP1, ubiquitin-rhodamine110 cleavage fluorescence kinetic; measured here: UCH-L1 counter-screen IC50
pIC50: −log10 of the molar value.
quantity.kind: pIC50

In the examples that follow, each entry is paired with its recorded pIC50.
COC(=O)c1c(NC(=O)CSc2nnc(-c3ccc(Cl)cc3)o2)sc(C)c1-c1ccc(F)cc1    4.63
Cc1sc(NC(=O)CSc2nnc(-c3ccc(Cl)cc3)o2)c(C#N)c1-c1ccc(CC(C)C)cc1    4.69
Cc1sc(NC(=O)CSc2nnc(-c3ccc(Br)cc3)o2)c(C#N)c1-c1ccc(F)cc1    4.77

A. Cc1ccc(-c2c(C)sc(NC(=O)CSc3nnc(-c4ccc(Cl)cc4)o3)c2C#N)cc1C
B. Cc1ccc(-c2c(C)sc(NC(=O)CSc3nnc(-c4ccc(F)cc4)o3)c2C#N)cc1C
Inquiry: Hi! Which is lower in terms of pIC50, the first one A or the second one B ? Indicate which entry you chose by stating its label.
Reply text: B

1. Cc1sc(NC(=O)CSc2nnc(-c3ccc(Cl)cc3)o2)c(C#N)c1-c1ccc(F)cc1
2. CCOC(=O)c1cnc(SCC(=O)Nc2sc(C)c(C)c2C#N)nc1N
Inquiry: Field: entry with larger pIC50 (options 1 / 2 ). # reply format: chosen label
Reply text: 1
(1: 4.67, 2: 4.35)

----------
- target.of.assay: Ubiquitin carboxyl-terminal hydrolase BAP1 (Homo sapiens) (UniProt Q92560)
- assay.comment: BAP1 versus UCH-L1 deubiquitinase inhibition – biochemical, ubiquitin-rhodamine110-glycine substrate, selectivity assay, dose response (AID 1134)
- experimental.parameters: recombinant BAP1, ubiquitin-rhodamine110 cleavage fluorescence kinetic
pIC50: −log10 of the molar value.
quantity.kind: pIC50

Example compounds with recorded pIC50:
Cc1ccc(-c2c(C)sc(NC(=O)CSc3nnc(-c4ccc(F)cc4)o3)c2C#N)cc1C    5.40
CCOC(=O)c1cnc(SCC(=O)Nc2sc(C)c(C)c2C#N)nc1N    5.60
Cc1sc(NC(=O)CSc2nccc(-c3ccc(Cl)cc3)n2)c(C#N)c1C    5.32
Cc1sc(NC(=O)CSc2nnc(-c3ccc(O)cc3)o2)c(C#N)c1-c1ccc(CC(C)C)cc1    5.32
Cc1sc(NC(=O)CSc2nnc(-c3ccc(Cl)cc3)o2)c(C#N)c1-c1ccc(F)cc1    6.09
Cc1sc(NC(=O)CSc2nnc(Cc3ccc(Cl)cc3)o2)c(C#N)c1-c1ccc(F)cc1    5.21

P. Cc1ccccc1Nc1nnc(SCC(=O)Nc2sc(C)c(-c3ccc(F)cc3)c2C#N)s1
Q. Cc1sc(NC(=O)CSc2nnc(-c3ccc(Cl)cc3)o2)c(C#N)c1-c1ccccc1
R. Cc1sc(NC(=O)CSc2nnc(-c3ccc(O)cc3)o2)c(C#N)c1-c1ccc(F)cc1
Inquiry: Sort entries by pIC50 from minimum to maximum value. Write the labels in rank order as requested.
Reply text: R, P, Q

----------
- target.of.assay: Ubiquitin carboxyl-terminal hydrolase BAP1 (Homo sapiens) (UniProt Q92560)
- assay.comment: BAP1 versus UCH-L1 deubiquitinase inhibition – biochemical, ubiquitin-rhodamine110-glycine substrate, selectivity assay, dose response (AID 1134)
- experimental.parameters: recombinant BAP1, ubiquitin-rhodamine110 cleavage fluorescence kinetic
pIC50: −log10 of the molar value.
quantity.kind: pIC50

Some compounds with known pIC50 results, for comparison:
Cc1sc(NC(=O)CSc2nnc(-c3ccc(Cl)nc3)o2)c(C#N)c1-c1ccc(F)cc1    5.55
Cc1sc(NC(=O)CSc2nnc(-c3ccc(Cl)cc3)o2)c(C#N)c1-c1ccc(Cl)cc1Cl    5.94
Cc1sc(NC(=O)CSc2nnc(-c3ccncc3)o2)c(C#N)c1-c1ccc(F)cc1    5.06
Cc1ccccc1Nc1nnc(SCC(=O)NCc2ccco2)s1    4.76
Cc1sc(NC(=O)CSc2nnc(-c3ccc(Cl)cc3)o2)c(C#N)c1-c1ccc(CC(C)C)cc1    5.43

A. Cc1sc(NC(=O)CSc2nnc(-c3ccc(Br)cc3)o2)c(C#N)c1-c1ccc(F)cc1
B. Cc1ccc(-c2c(C)sc(NC(=O)CSc3nnc(-c4ccc(Cl)cc4)o3)c2C#N)cc1C
C. O=C(CSc1nnc(-c2ccc(O)cc2)o1)Nc1cc(-c2ccc(F)cc2)[nH]n1
D. Cc1sc(NC(=O)CSc2nnc(-c3cccnc3)o2)c(C#N)c1-c1ccc(F)cc1
Inquiry: Write the entries in order, lowest recorded pIC50 first. Please list the labels in the order you were asked to rank them.
Reply text: D, C, B, A
(D: 4.45, C: 4.84, B: 5.28, A: 6.05)

----------
- target.of.assay: Ubiquitin carboxyl-terminal hydrolase BAP1 (Homo sapiens)
- assay.comment: BAP1 versus UCH-L1 deubiquitinase inhibition – biochemical, ubiquitin-rhodamine110-glycine substrate, selectivity assay, dose response (AID 1134)
- experimental.parameters: recombinant BAP1, ubiquitin-rhodamine110 cleavage fluorescence kinetic
quantity.kind: IC50

Cc1sc(NC(=O)CSc2nnc(-c3ccc(Cl)cc3)o2)c(C(N)=O)c1-c1ccc(F)cc1    3.88 µM
O=C(NCc1ccco1)c1cc2nc(-c3ccc4c(c3)OCO4)cc(C(F)(F)F)n2n1    15.4 µM
COC(=O)c1c(NC(=O)CSc2nnc(-c3ccc(O)cc3)o2)sc(C)c1-c1ccc(F)cc1    6.07 µM

Now for the molecule whose IC50 we want.
Inquiry: Which IC50 value belongs to `COC(=O)c1c(NC(=O)CSc2nnc(-c3ccc(Cl)cc3)o2)sc(C)c1-c1ccc(F)cc1` ?
Reply text: 3.59 µM
